Numbers sourced from ChEMBL document CHEMBL1201862.

Test system: 786-0
Test: NCI tumour cell line growth inhibition, 48 h
Calls of active or inactive are those of the source. Rule as the data show it: active = GI50 up to about 1.1 µM and inactive = higher.
Use one of these outcomes when replying: t = active, f = inactive

Sample answers from the record:
molecule	class_assignment
COc1c2nc(CCl)[nH]c(=O)c2c(OC)c2nc(CCl)[nH]c(=O)c12	f
CCOP(=O)(OCC)C(Nc1cccc([N+](=O)[O-])c1)c1ccccc1 (stereo unspecified)	f

For this molecule, state the assay outcome: `CNCCCNc1c2ccccc2nc2cccc([N+](=O)[O-])c12`
t

State the result this test recorded for `COc1cc(NS(=O)(=O)c2ccc(C)cc2)c2nccnc2c1` .
f

Which outcome did this test record for the molecule `COC(=O)[C@]12CCC(=O)N1[C@H](C(=O)O)Cc1c2[nH]c2ccccc12` ?
f

How was C[C@H]1C=C2[C@@H]3CC(C)(C(=O)O)CC[C@]3(C)CC[C@]2(C)[C@]2(C)CC[C@H]3C(C)(C)[C@@H](OC(=O)c4cccc5c(=O)c6ccccc6[nH]c45)CC[C@]3(C)[C@@H]12 (stereo partly specified) classified in this test?
f

Please indicate how the test categorized `c1ccc2c(Cc3c[nH]c4ccccc34)c[nH]c2c1` .
f

* * *

Tested on: HOP-18
Assay: NCI tumour cell line growth inhibition, 48 h
The source made the active and inactive calls. Cut-off read from the data, not from the text of the source: active = GI50 up to about 1.1 µM and inactive = higher.
The entries below are paired with their reported GI50.

Example compounds with recorded GI50:
compound	GI50
C=C=C(C(=O)OC)[S+]([O-])c1ccccc1[N+](=O)[O-] (centres undefined)	> 100 µM (inactive)
O=C(/C=C/c1ccc[nH]1)c1ccccc1	40.2 µM (inactive)
CC1CCP(=O)(c2ccccc2)c2ccccc21 (centres undefined)	> 100 µM (inactive)

Here's the next entry for you.
For `Cc1ccc([Se][Se]c2ccc(C)cc2)cc1` , what is its reported GI50?
6.46 µM (inactive)

* * *

Tested on: OVCAR-8
Assay: NCI tumour cell line growth inhibition, 48 h
Activity calls are given as the source filed them. No stated cut-off is given here; in the data, active = GI50 up to about 1.1 µM and inactive = higher.
value_type: GI50

compound	target_system	value_type	result
[O-][S+]1Nc2c(Cl)cc(Cl)c3c(Cl)cc(Cl)c(c23)N1	OVCAR-8	GI50	32.4 µM (inactive)
COCC1OC(Sc2ccccc2)C(O)C(OC)C1OC (stereo not given)	OVCAR-8	GI50	> 100 µM (inactive)
Cc1ccc([S+](c2ccccc2)c2cc(C)ccc2C)cc1 (stereo not given)	OVCAR-8	GI50	4.59 µM (inactive)

State its GI50 on OVCAR-8: `COc1ccc2c(c1)[n+]([O-])c(-c1nc3ccccc3s1)c(N)[n+]2[O-]`
> 100 µM (inactive)

Record CC(=O)NC1C(Sc2ncn(C3OC(CO)C(O)C(O)C3NC(C)=O)n2)OC(CO)C(O)C1O (stereo not given) : what is its GI50 with OVCAR-8?
> 100 µM (inactive)

Which measured GI50 belongs to `O=[N+]([O-])c1ccc2c(c1)S(=O)(=O)N1Cc3ccccc3CCN21` , tested on OVCAR-8?
> 100 µM (inactive)

Item `CC(C)c1cccc(C(C)C)c1NC(=S)NN=C1C=C(C(C)(C)C)C(=O)C(C(C)(C)C)=C1` with OVCAR-8 - GI50?
17.8 µM (inactive)

Observed GI50 on OVCAR-8 for `O=C(C/C(=N/O)C(F)(F)F)c1cccs1` , please.
> 100 µM (inactive)

Can you look up GI50 on OVCAR-8 for CN(C(=O)C12C3(C(=O)O)C4C5(C(=O)O)C3C1(C(=O)O)C5C42C(=O)O)C(C)(C)C (stereo not given) ?
> 100 µM (inactive)

Query for OVCAR-8: what GI50 does the record show for CC(O)C1(CNc2cc(Cl)nc(N)n2)CC(CCc2ccccc2)C1 (stereo not given) ?
14.5 µM (inactive)

* * *

Test system: OVCAR-5
Test: NCI tumour cell line growth inhibition, 48 h
Activity calls are given as the source filed them. Rule as the data show it: active = GI50 up to about 1.1 µM and inactive = higher.
Please reply with one of these outcomes: label 1 (active), label 0 (inactive)

Consider the worked cases shown below.
compound	class_assignment
CC(=O)NC(CCCCN(Cc1ccccc1)C(=O)N(C)N=O)C(=O)NCc1ccccc1 (configuration not stated)	label 0
COc1cc(NS(=O)(=O)c2ccc(C)cc2)c2nccnc2c1	label 0
CC(=NNC(=S)Nc1ccccc1)c1cccc(C(C)=NNC(=S)Nc2ccccc2)n1	label 0
CC(=O)OC[C@H]1O[C@@H](O[C@H]2[C@H](OC(C)=O)C=CO[C@@H]2COC(C)=O)C(OC(C)=O)[C@H]2OC(C)(C)O[C@H]21 (some centres not stated)	label 0
COc1ccc(OC(C)=O)c2c1CCC=CC2=O	label 0

What was the test verdict on C=C(C)C1CCC2(CO)C(O)CC3(C)C(CCC4C5(C)CCC(O)C(C)(C)C5CCC43C)C12 (configuration not stated) ?
label 0

What outcome does the record of this test show for C/C(=C/CC[C@](C)(OC1OC(CO)C(O)C(O)C1OC1OC(C)C(O)C(O)C1O)[C@H]1CC[C@]2(C)[C@@H]1CC[C@@H]1[C@@]3(C)CC[C@H](O)C(C)(C)[C@@H]3C[C@H](O)[C@]12C)CO (some centres not stated) ?
label 0

Give the logged outcome of this assay for the following compound: `c1ccc2c(Cc3c[nH]c4ccccc34)c[nH]c2c1`
label 0

Which result was noted for this compound in the test: `O=C(O)CCc1nc2ccccc2[nH]1`
label 0

Call for entry CC(N/N=C(\S)N1CCCCCC1)c1cccnn1 (configuration not stated) :
label 1

How was `CCCC(c1cc(C(C)(C)C)c(O)cc1C)c1cc(C(C)(C)C)c(O)cc1C` classified in this test?
label 0

Recorded test call requested for `COC(=O)c1c(O)ccc2c1c1cc3ccccc3cc1n2Cc1cc(OC)cc(OC)c1`
label 0

Field: outcome | Entry: `Cc1ccccc1NC(=O)/C(C#N)=N\Nc1[nH]cnc1C(N)=O`
label 0

Can you look up the reported call for `c1ccc2c(c1)CCc1c(-c3n[nH]c4c3CCc3ccccc3-4)n[nH]c1-2` for me?
label 0

* * *

Tested on: NCI-H23
Assay: NCI tumour cell line growth inhibition, 48 h
Active and inactive are the calls of the source. No stated cut-off is given here; in the data, active = GI50 up to about 1.1 µM and inactive = higher.
value_type: GI50

Completed entries (count: 5):
compound	GI50
O=c1[nH]nc(-c2ccc3ccccc3c2)[nH]1	> 100 µM (inactive)
CC(=O)OC1CC[C@@]2(C)C(=CC[C@@H]3[C@@H]2CC[C@]2(C)Nc4c(cnn4-c4ccc(F)cc4)C[C@@H]32)C1 (stereo not given in full)	22.1 µM (inactive)
CCCCCCC(=O)C/C(CCC(=O)N(Cc1ccccc1)Cc1ccccc1)=N\Nc1ccc([N+](=O)[O-])cc1[N+](=O)[O-]	38.7 µM (inactive)
COc1cc(-c2oc(/C=N/c3ccccc3)c([N+](=O)[O-])c2-c2ccc(O)c(OC)c2)ccc1O	16.3 µM (inactive)
COc1ccc(OC(C)=O)c2c1CCC=CC2=O	18.5 µM (inactive)

Shifting focus to the compound that follows.
Reported GI50, compound `O=C1c2ccoc2C(=O)c2oc(=O)ccc21` : ____
2 µM (inactive)

* * *

A collection of compounds and their measured GI50
System: BT-549
Experiment: NCI tumour cell line growth inhibition, 48 h
Active and inactive are the calls of the source. No stated cut-off is given here; in the data, active = GI50 up to about 1.1 µM and inactive = higher.

Field: example entries. Status: answers known.
compound	GI50
Cc1ccc(C2(N3CCOCC3)OC(C)(C)c3cccc4cccc2c34)cc1 (centres undefined)	17.3 µM (inactive)
CCCC(C)NC(=O)c1ccc(N(C)Cc2cnc3nc(N)nc(N)c3n2)cc1 (centres undefined)	15.5 µM (inactive)
COc1cc2c(cc1O)C(=O)O[C@@H]1CC=C3CCN(C)[C@H]3[C@H]21	> 25 µM (inactive)
CN(C(=O)C12C3(C(=O)O)C4C5(C(=O)O)C3C1(C(=O)O)C5C42C(=O)O)C(C)(C)C (centres undefined)	> 100 µM (inactive)
COc1cc2c(cc1OC)C(Cl)C(c1ccc(Br)cc1)=C2Cl (centres undefined)	2.31 µM (inactive)
O=C(c1ccccc1)N1N=C(C(F)(F)F)CC1(O)C(F)(F)F (centres undefined)	> 100 µM (inactive)
O=C(O)C1=NN(c2ccc(S(=O)(=O)O)cc2)C2(C1)SCC(=O)N2c1nc2ccccc2s1 (centres undefined)	> 100 µM (inactive)
O=[N+]([O-])/C(C(Cl)=C(Cl)Cl)=C(\Nc1cccc2cccnc12)SCc1ccccc1	16.9 µM (inactive)

Here is the next item to consider.
Which value of GI50 has been reported for `O=C(O)CCNC(=O)c1cc(N(CCBr)CCBr)c([N+](=O)[O-])cc1[N+](=O)[O-]` in the records?
> 100 µM (inactive)

* * *

System: KM12
Test: NCI tumour cell line growth inhibition, 48 h
Calls of active or inactive are those of the source. No stated cut-off is given here; in the data, active = GI50 up to about 1.1 µM and inactive = higher.
value_type: GI50

Here is how some compounds turned out for GI50.
compound	GI50
COc1cc(Cn2c3c(c4cc(O)ccc42)Cc2ccccc2C3=O)cc(OC)c1	39.2 µM (inactive)
O=C(OC1C=C=CS(=O)(=O)CC#C/C=C\1)c1cnc2ccccc2n1 (stereo not given)	> 100 µM (inactive)
NC(=O)N/C=C1\C(=O)Oc2ccccc2C1=O	> 100 µM (inactive)

Endpoint output: GI50 of `CCc1nc(N)nc(N)c1-c1ccc([N+](=O)[O-])c(Cl)c1` . Value?
6.87 µM (inactive)

Fill in: GI50 of CCCCC1c2c([nH]c3ccccc23)C2C(=O)N(c3ccc(OC)cc3)C(=O)C2C1CCC (stereo not given) is ___
2.1 µM (inactive)
